System: D α6 and C. elegans ric3 expressed in D.Mel-2 cells
Assay type: binding, Drosophila melanogaster
Settings: D.Mel-2 cells expressing D α6 and C. elegans ric3
endpoint name: displacement of [3H]DHSA binding

Return reported displacement of [3H]DHSA binding; argument: CC[C@H]1CCC[C@H](O[C@H]2CC[C@H](N(C)C)[C@@H](C)O2)[C@@H](C)C(=O)C2=C[C@H]3[C@@H]4C[C@H](O[C@@H]5O[C@@H](C)[C@H](OC)[C@@H](OC)[C@H]5OC)C[C@H]4CC[C@H]3[C@@H]2CC(=O)O1 [dihydrospinosyn A] significant displacement

Another molecule to check: CC[C@H]1CCC[C@H](O[C@H]2CC[C@H](N(C)C)[C@@H](C)O2)[C@@H](C)C(=O)C2=C[C@@H]3[C@@H](C=C[C@@H]4C[C@@H](O[C@@H]5O[C@@H](C)[C@H](OC)[C@@H](OC)[C@H]5OC)C[C@@H]34)[C@@H]2CC(=O)O1 [Spinosyn A, spinosyn A] significant displacement

Cited source for all entries: patent US9005981B2
